target: human plasma protein factor Xa (Homo sapiens, UniProt P00742); construct: measure proteolytic activity of the enzyme (factor Xa); purchased Haematologic Technologies (Essex Junction, Vt.); host or cells: human plasma; test: Factor Xa IC50 determination: cleavage of paranitroanilide substrate S-2765 in 96-well plates; assay type: biochemical; settings: fXa 1 nM, S-2765 100 μM, Tris buffered saline pH 7.4, room temperature
Sequence (P00742 235-488 limits assumed): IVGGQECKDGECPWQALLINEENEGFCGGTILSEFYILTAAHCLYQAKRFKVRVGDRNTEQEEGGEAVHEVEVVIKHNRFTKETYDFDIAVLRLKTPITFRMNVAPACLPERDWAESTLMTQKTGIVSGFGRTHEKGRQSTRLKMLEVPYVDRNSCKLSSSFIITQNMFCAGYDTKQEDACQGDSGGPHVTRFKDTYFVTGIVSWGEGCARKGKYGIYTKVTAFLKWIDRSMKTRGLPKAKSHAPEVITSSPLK
Sequence (P00742 41-179 partner limits assumed): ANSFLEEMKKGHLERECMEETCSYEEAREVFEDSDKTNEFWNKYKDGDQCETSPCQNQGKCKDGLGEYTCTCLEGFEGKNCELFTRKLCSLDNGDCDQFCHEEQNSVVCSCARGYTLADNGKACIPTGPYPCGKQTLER
Experimental Readout: IC50

Check out these entries, answers already filled in.
>  <Compound>
CC1(CNC(=O)c2ccc(Cl)s2)CC(c2ccc(C(=N)N3CCC(C(N)=O)CC3)cc2)=NO1 (centres unmarked)

>  <Experimental Readout>
IC50

>  <Result>
100 to 500 nM

$$$$
>  <Compound>
COc1cc(C(=N)N(C)C)ccc1-c1cc(CNC(=O)c2ccc(Cl)s2)on1

>  <Experimental Readout>
IC50

>  <Result>
≤ 100 nM

$$$$
>  <Compound>
CCN1CCC(c2cc(CNC(=O)c3ccc(Cl)s3)on2)CC1

>  <Experimental Readout>
IC50

>  <Result>
≥ 500 nM

$$$$
>  <Compound>
COc1cccn(-c2ccc(C3=NOC(CNC(=O)c4ccc(Cl)s4)C3)cc2)c1=O (centres unmarked)

>  <Experimental Readout>
IC50

>  <Result>
≤ 100 nM

$$$$
>  <Compound>
CN1CCN=C1c1ccc(-c2nc(CNC(=O)c3ccc(Cl)s3)cs2)cc1

>  <Experimental Readout>
IC50

>  <Result>
100 to 500 nM

$$$$

Inquiry: Could you tell me which IC50 is on file for `O=C(NCc1cc(-c2ccc(-n3ccccc3=O)nc2)no1)c1ccc(Cl)s1` ?
Reply text: ≤ 100 nM

Inquiry: Could you tell me which IC50 is on file for `O=C(NCc1cc(-c2cccc(Br)c2)no1)c1ccc(Cl)s1` ?
Reply text: ≥ 500 nM

Inquiry: Could you tell me which IC50 is on file for `CCN(C)C(=N)c1ccc(-n2cc(CNC(=O)c3ccc(Cl)s3)nn2)cc1` ?
Reply text: ≤ 100 nM

Inquiry: Could you tell me which IC50 is on file for `O=C(NCc1cc(-c2ccccc2)no1)c1ccc(Cl)s1` ?
Reply text: ≥ 500 nM

Inquiry: Could you tell me which IC50 is on file for `CN(Cc1cc(-c2ccc(C(=N)N3CCCC3)cc2)no1)C(=O)c1ccc(Cl)s1` ?
Reply text: ≥ 500 nM

Origin of values: patent US8377974B2
